Test system: dengue virus type 3
Method notes: Antiviral activity against Dengue virus 3 D3MY05-34640 infected in human HuH7 replicon cells expressing Renilla luciferase and neomycin-resistance genes assessed as reduction in viral replication incubated for 48 hrs by luciferase reporter replicon-based assay
Format: functional, organism-based
Experimental parameters: D3MY05-34640, Huh-7, 48 h
Parameter: EC50 (nM)
Return type: number; implicit unit nM.

{"columns": ["Cpd smiles", "EC50 / nM"],
 "data": [
  ["C[C@@H](c1ccc(Cl)cc1)n1nnc2c1NC(=O)C[C@]21C(=O)N(CCCN(C)C)c2ccc(Cl)cc21", 1]
]}

# next compound below
Qu. For the compound C[C@@H](c1ccc(Cl)cc1)n1nnc2c1NC(=O)C[C@]21C(=O)N(CCF)c2ccc(Cl)cc21 , what EC50 is on record?
Ans. 9

----------
System: dengue virus type 1
Method notes: Antiviral activity against Dengue virus 1 WestPac infected in human HuH7 replicon cells expressing Renilla luciferase and neomycin-resistance genes assessed as reduction in viral replication incubated for 48 hrs by luciferase reporter replicon-based assay
Format: functional, organism-based
Experimental parameters: Huh-7, 48 h
Parameter: EC50

{"columns": ["Cpd smiles", "Parameter", "Test result"],
 "data": [
  ["COC(=O)CN1C(=O)C[C@]2(C(=O)Nc3ccc(Cl)cc32)c2nnn([C@@H](C)c3ccc(Cl)cc3)c21", "EC50", "> 10 µM"]
]}

Qu. If you can, please state the reported EC50 value of C[C@@H](c1ccc(Cl)cc1)n1nnc2c1NC(=O)C[C@]21C(=O)N(CCCN2CCCCC2)c2ccc(Cl)cc21 .
Ans. > 5 µM

Qu. // EC50 lookup, key: C[C@@H](c1ccc(Cl)cc1)n1nnc2c1NC(=O)C[C@]21C(=O)N(CCCN2CCOCC2)c2ccc(Cl)cc21
Ans. > 5 µM

Qu. Requested read-out: EC50. Entry: C[C@@H](c1ccc(Cl)cc1)n1nnc2c1NC(=O)C[C@]21C(=O)N(CCN(C)CCS(C)(=O)=O)c2ccc(Cl)cc21
Ans. > 5 µM

Qu. Given C[C@@H](c1ccc(Cl)cc1)n1nnc2c1NC(=O)C[C@]21C(=O)Nc2ccc(Cl)cc21 , state its recorded EC50.
Ans. > 5 µM

Qu. What value of EC50 has been recorded for this entry: C[C@@H](c1ccc(Cl)cc1)n1nnc2c1NC(=O)C[C@]21C(=O)N(CCN2CCC2)c2ccc(Cl)cc21
Ans. > 5 µM

Qu. What does the record list as EC50 for C[C@@H](c1ccc(Cl)cc1)n1nnc2c1NC(=O)C[C@]21C(=O)N(CCN(C)C)c2ccc(Cl)cc21 ?
Ans. > 5 µM

Qu. Name the reported EC50 value associated with the molecule C[C@@H](c1ccc(Cl)cc1)n1nnc2c1NC(=O)C[C@]21C(=O)N(CCCCN2CCCCC2)c2ccc(Cl)cc21
Ans. > 5 µM

Qu. Which EC50 value is on record for CNCCN1C(=O)[C@]2(CC(=O)Nc3c2nnn3[C@@H](C)c2ccc(Cl)cc2)c2cc(Cl)ccc21 ?
Ans. > 5 µM

Qu. Using the record for C[C@@H](c1ccc(Cl)cc1)n1nnc2c1NC(=O)C[C@]21C(=O)N(CCN2CCCC2)c2ccc(Cl)cc21 , report its EC50.
Ans. > 5 µM

Qu. Which EC50 value is on record for C[C@@H](c1ccc(Cl)cc1)n1nnc2c1NC(=O)C[C@]21C(=O)N(CCF)c2ccc(Cl)cc21 ?
Ans. > 5 µM

Qu. Query: EC50; subject: C[C@@H](c1ccc(Cl)cc1)n1nnc2c1NC(=O)C[C@]21C(=O)N(CCCBr)c2ccc(Cl)cc21
Ans. 2.4 µM

Qu. For C[C@@H](c1ccc(Cl)cc1)n1nnc2c1NC(=O)C[C@]21C(=O)N(CCN2CCOCC2)c2ccc(Cl)cc21 , what is its reported EC50?
Ans. > 5 µM

Qu. Name the recorded EC50 for CCOC(CN1C(=O)[C@]2(CC(=O)Nc3c2nnn3[C@@H](C)c2ccc(Cl)cc2)c2cc(Cl)ccc21)OCC .
Ans. > 5 µM

Qu. Param item = CC(C)CN1C(=O)[C@]2(CC(=O)Nc3c2nnn3[C@@H](C)c2ccc(Cl)cc2)c2cc(Cl)ccc21 ; retrieve measured EC50.
Ans. 1.3 µM

Qu. For C[C@@H](c1ccc(Cl)cc1)n1nnc2c1NC(=O)C[C@]21C(=O)N(CCCCN(C)C)c2ccc(Cl)cc21 , what is its reported EC50?
Ans. > 5 µM

Qu. Please report the recorded EC50 for CC#CCN1C(=O)[C@]2(CC(=O)Nc3c2nnn3[C@@H](C)c2ccc(Cl)cc2)c2cc(Cl)ccc21 .
Ans. > 5 µM

Qu. Look up EC50: CC(C)N1C(=O)[C@]2(CC(=O)Nc3c2nnn3[C@@H](C)c2ccc(Cl)cc2)c2cc(Cl)ccc21
Ans. 5.7 µM

Qu. Value lookup for EC50; key = COC(=O)CN1C(=O)[C@]2(CC(=O)Nc3c2nnn3[C@@H](C)c2ccc(Cl)cc2)c2cc(Cl)ccc21
Ans. > 5 µM

Qu. Item COCOCCN1C(=O)[C@]2(CC(=O)Nc3c2nnn3[C@@H](C)c2ccc(Cl)cc2)c2cc(Cl)ccc21 has what recorded EC50?
Ans. > 5 µM

Qu. Query: EC50; subject: C[C@@H](c1ccc(Cl)cc1)n1nnc2c1NC(=O)C[C@]21C(=O)N(CCC(C)(C)C)c2ccc(Cl)cc21
Ans. 1.1 µM

Qu. Using the record for COc1cccc(CN2C(=O)[C@]3(CC(=O)Nc4c3nnn4[C@@H](C)c3ccc(Cl)cc3)c3cc(Cl)ccc32)c1 , report its EC50.
Ans. 2.6 µM
